System: 521955-158-R2-J5-PDC complex spheroids, viability
procedure-summary: Anticancer human tumor 521955-158-R2-J5-PDC patient-derived pancreatic carcinoma cell line growth inhibition [RAS]
condition-details: second compound 0.0949 µM; first compound 0.316 µM; stronger effect = lower value
Hi! Just check whether viability, T/C is below 40%. Below gives met, equal or above gives not met.

| compound | target-or-system | label-value |
| --- | --- | --- |
| Nc1ccn(C2OC(CO)C(O)C2(F)F)c(=O)n1 (stereo not drawn) + CCn1c(-c2cccnc2C(C)OC)c2c3cc(ccc31)N1CCOC(CC(NC(=O)C(C(C)C)N(C)C(=O)C3(F)CCN(C(=O)C#CC(C)(C)N(C)C)CC3)C(=O)N3CCCC(N3)C(=O)OCC(C)(C)C2)C1 | 521955-158-R2-J5-PDC complex spheroids, viability | not met |
| CC(Nc1ccc2c(c1)OCCn1cc(N3C(=O)OCC3C(F)F)nc1-2)C(N)=O (stereo not drawn) + CCn1c(-c2cc(N3CCN(C)CC3)cnc2C(C)OC)c2c3cc(ccc31)-c1csc(n1)CC(NC(=O)C1CC1C)C(=O)N1CCCC(N1)C(=O)OCC(C)(C)C2 | 521955-158-R2-J5-PDC complex spheroids, viability | met |
| NC1c2ccccc2OC12CCN(c1cnc3c(N4CCCc5ncccc54)n[nH]c3n1)CC2 (stereo not drawn) + CCn1c(-c2cc(N3CCN(C)CC3)cnc2C(C)OC)c2c3cc(ccc31)-c1csc(n1)CC(NC(=O)C1CC1C)C(=O)N1CCCC(N1)C(=O)OCC(C)(C)C2 | 521955-158-R2-J5-PDC complex spheroids, viability | met |
| CC(C)NCC(C(=O)N1CCN(c2ncnc3c2C(C)CC3O)CC1)c1ccc(Cl)cc1 (stereo not drawn) + CCn1c(-c2cccnc2C(C)OC)c2c3cc(ccc31)N1CCOC(CC(NC(=O)C(C(C)C)N(C)C(=O)C3(F)CCN(C(=O)C#CC(C)(C)N(C)C)CC3)C(=O)N3CCCC(N3)C(=O)OCC(C)(C)C2)C1 | 521955-158-R2-J5-PDC complex spheroids, viability | not met |
| NC1c2ccccc2OC12CCN(c1cnc3c(N4CCCc5ncccc54)n[nH]c3n1)CC2 (stereo not drawn) + CCn1c(-c2cccnc2C(C)OC)c2c3cc(ccc31)N1CCOC(CC(NC(=O)C(C(C)C)N(C)C(=O)C3(F)CCN(C(=O)C#CC(C)(C)N(C)C)CC3)C(=O)N3CCCC(N3)C(=O)OCC(C)(C)C2)C1 | 521955-158-R2-J5-PDC complex spheroids, viability | not met |
| CC(Nc1ccc2c(c1)OCCn1cc(N3C(=O)OCC3C(F)F)nc1-2)C(N)=O (stereo not drawn) + CCn1c(-c2cccnc2C(C)OC)c2c3cc(ccc31)N1CCOC(CC(NC(=O)C(C(C)C)N(C)C(=O)C3(F)CCN(C(=O)C#CC(C)(C)N(C)C)CC3)C(=O)N3CCCC(N3)C(=O)OCC(C)(C)C2)C1 | 521955-158-R2-J5-PDC complex spheroids, viability | met |
| C=CC(=O)Nc1cc(Nc2nccc(-c3cn(C)c4ccccc34)n2)c(OC)cc1N(C)CCN(C)C + CCn1c(-c2cccnc2C(C)OC)c2c3cc(ccc31)N1CCOC(CC(NC(=O)C(C(C)C)N(C)C(=O)C3(F)CCN(C(=O)C#CC(C)(C)N(C)C)CC3)C(=O)N3CCCC(N3)C(=O)OCC(C)(C)C2)C1 | 521955-158-R2-J5-PDC complex spheroids, viability | not met |
| CC(=O)OC12COC1CC(O)C1(C)C(=O)C(O)C3=C(C)C(OC(=O)C(O)C(NC(=O)OC(C)(C)C)c4ccccc4)CC(O)(C(OC(=O)c4ccccc4)C21)C3(C)C (stereo not drawn) + CCn1c(-c2cccnc2C(C)OC)c2c3cc(ccc31)N1CCOC(CC(NC(=O)C(C(C)C)N(C)C(=O)C3(F)CCN(C(=O)C#CC(C)(C)N(C)C)CC3)C(=O)N3CCCC(N3)C(=O)OCC(C)(C)C2)C1 | 521955-158-R2-J5-PDC complex spheroids, viability | met |

---

Test system: 521955-158-R2-J5-PDC complex spheroids, viability
procedure-summary: Anticancer human tumor 521955-158-R2-J5-PDC cell line growth inhibition [RAS]; active = viability on the fitted dose curve at most 10% of control; inactive = the rest;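 further: compound exposure lasted seven days before the viability read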
condition-details: second compound 0.3 µM; first compound 10 µM
Outcome codes: active, inactive

| molecule | label-value |
| --- | --- |
| CC(C)NCC(C(=O)N1CCN(c2ncnc3c2C(C)CC3O)CC1)c1ccc(Cl)cc1 (centres undefined) + CCn1c(-c2cc(N3CCN(C)CC3)cnc2C(C)OC)c2c3cc(ccc31)-c1csc(n1)CC(NC(=O)C1CC1C)C(=O)N1CCCC(N1)C(=O)OCC(C)(C)C2 | active |
| CC(=O)OC12COC1CC(O)C1(C)C(=O)C(O)C3=C(C)C(OC(=O)C(O)C(NC(=O)OC(C)(C)C)c4ccccc4)CC(O)(C(OC(=O)c4ccccc4)C21)C3(C)C (centres undefined) + CCn1c(-c2cccnc2C(C)OC)c2c3cc(ccc31)N1CCOC(CC(NC(=O)C(C(C)C)N(C)C(=O)C3(F)CCN(C(=O)C#CC(C)(C)N(C)C)CC3)C(=O)N3CCCC(N3)C(=O)OCC(C)(C)C2)C1 | inactive |
| CCC(CC)c1cc(NC2CCC(N)C2)n2nccc2n1 (centres undefined) + CCn1c(-c2cccnc2C(C)OC)c2c3cc(ccc31)N1CCOC(CC(NC(=O)C(C(C)C)N(C)C(=O)C3(F)CCN(C(=O)C#CC(C)(C)N(C)C)CC3)C(=O)N3CCCC(N3)C(=O)OCC(C)(C)C2)C1 | active |
| CC(C)NCC(C(=O)N1CCN(c2ncnc3c2C(C)CC3O)CC1)c1ccc(Cl)cc1 (centres undefined) + CCn1c(-c2cccnc2C(C)OC)c2c3cc(ccc31)N1CCOC(CC(NC(=O)C(C(C)C)N(C)C(=O)C3(F)CCN(C(=O)C#CC(C)(C)N(C)C)CC3)C(=O)N3CCCC(N3)C(=O)OCC(C)(C)C2)C1 | inactive |

---

Tested on: 521955-158-R2-J5-PDC complex spheroids, viability
procedure-summary: Anticancer human tumor 521955-158-R2-J5-PDC cell line growth inhibition [RAS];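 further: compound exposure lasted seven days before the viability read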
condition-details: curve of first compound; second compound 0.316 µM

| molecule | units-text | limit-qualifier | IC50 |
| --- | --- | --- | --- |
| CC(Nc1ccc2c(c1)OCCn1cc(N3C(=O)OCC3C(F)F)nc1-2)C(N)=O (stereo unspecified) + C#Cc1c(F)ccc2cc(O)cc(-c3ncc4c(N5CC6CCC(C5)N6)nc(OCC56CCCN5CC(F)C6)nc4c3F)c12 | nM | < | 31.6 |
| Nc1ccn(C2OC(CO)C(O)C2(F)F)c(=O)n1 (stereo unspecified) + C#Cc1c(F)ccc2cc(O)cc(-c3ncc4c(N5CC6CCC(C5)N6)nc(OCC56CCCN5CC(F)C6)nc4c3F)c12 | nM | < | 3.16 |
| CC1(C)CCC(Nc2ncc(C(F)(F)F)c(-c3c[nH]c4c(P(C)(C)=O)c(C#N)ccc34)n2)CN1 (stereo unspecified) + C#Cc1c(F)ccc2cc(O)cc(-c3ncc4c(N5CC6CCC(C5)N6)nc(OCC56CCCN5CC(F)C6)nc4c3F)c12 | nM | < | 0.949 |
| CC(Nc1ccc2c(c1)OCCn1cc(N3C(=O)OCC3C(F)F)nc1-2)C(N)=O (stereo unspecified) + C=CC(=O)N1CCN(c2nc(OCC3CCCN3C)nc3c(F)c(-c4nc(N)cc(C)c4C(F)(F)F)c(Cl)cc23)C(C)C1 | nM | = | 261 |
| Nc1ccn(C2OC(CO)C(O)C2(F)F)c(=O)n1 (stereo unspecified) + C=CC(=O)N1CCN(c2nc(OCC3CCCN3C)nc3c(F)c(-c4nc(N)cc(C)c4C(F)(F)F)c(Cl)cc23)C(C)C1 | nM | = | 258 |
| CC(=O)OC12COC1CC(O)C1(C)C(=O)C(O)C3=C(C)C(OC(=O)C(O)C(NC(=O)OC(C)(C)C)c4ccccc4)CC(O)(C(OC(=O)c4ccccc4)C21)C3(C)C (stereo unspecified) + C=CC(=O)N1CCN(c2nc(OCC3CCCN3C)nc3c(F)c(-c4nc(N)cc(C)c4C(F)(F)F)c(Cl)cc23)C(C)C1 | nM | < | 31.6 |
| O=C(c1ccc(F)c(F)c1Nc1ccc(I)cc1F)N1CC(O)([C@@H]2CCCCN2)C1 + C=CC(=O)N1CCN(c2nc(OCC3CCCN3C)nc3c(F)c(-c4nc(N)cc(C)c4C(F)(F)F)c(Cl)cc23)C(C)C1 | nM | = | 72 |
| C=CC(=O)Nc1cc(Nc2nccc(-c3cn(C)c4ccccc34)n2)c(OC)cc1N(C)CCN(C)C + C=CC(=O)N1CCN(c2nc(OCC3CCCN3C)nc3c(F)c(-c4nc(N)cc(C)c4C(F)(F)F)c(Cl)cc23)C(C)C1 | nM | = | 636 |
| CCc1c2c(nc3ccc(O)cc13)-c1cc3c(c(=O)n1C2)COC(=O)[C@]3(O)CC + C=CC(=O)N1CCN(c2nc(OCC3CCCN3C)nc3c(F)c(-c4nc(N)cc(C)c4C(F)(F)F)c(Cl)cc23)C(C)C1 | nM | = | 2.21 |
| C=CC(=O)N1CCN(c2nc(OCC3CCCN3C)nc3c(F)c(-c4nc(N)cc(C)c4C(F)(F)F)c(Cl)cc23)C(C)C1 (stereo unspecified) + C#Cc1c(F)ccc2cc(O)cc(-c3ncc4c(N5CC6CCC(C5)N6)nc(OCC56CCCN5CC(F)C6)nc4c3F)c12 | nM | > | 1000 |
| C=CC(=O)Nc1cc(Nc2nccc(-c3cn(C)c4ccccc34)n2)c(OC)cc1N(C)CCN(C)C + C#Cc1c(F)ccc2cc(O)cc(-c3ncc4c(N5CC6CCC(C5)N6)nc(OCC56CCCN5CC(F)C6)nc4c3F)c12 | nM | = | 47.1 |
| NC1c2ccccc2OC12CCN(c1cnc3c(N4CCCc5ncccc54)n[nH]c3n1)CC2 (stereo unspecified) + C#Cc1c(F)ccc2cc(O)cc(-c3ncc4c(N5CC6CCC(C5)N6)nc(OCC56CCCN5CC(F)C6)nc4c3F)c12 | nM | < | 31.6 |
| Cc1nc(N2CCC3(CC2)COC(C)C3N)c(CO)nc1Sc1ccnc(N)c1Cl (stereo unspecified) + C#Cc1c(F)ccc2cc(O)cc(-c3ncc4c(N5CC6CCC(C5)N6)nc(OCC56CCCN5CC(F)C6)nc4c3F)c12 | nM | = | 115 |
| CCN1CCN(Cc2ccc(Nc3ncc(F)c(-c4cc(F)c5nc(C)n(C(C)C)c5c4)n3)nc2)CC1 + C=CC(=O)N1CCN(c2nc(OCC3CCCN3C)nc3c(F)c(-c4nc(N)cc(C)c4C(F)(F)F)c(Cl)cc23)C(C)C1 | nM | > | 1000 |
| CC(C)n1nc(-c2ccc3oc(N)nc3c2)c2c(N)ncnc21 + C=CC(=O)N1CCN(c2nc(OCC3CCCN3C)nc3c(F)c(-c4nc(N)cc(C)c4C(F)(F)F)c(Cl)cc23)C(C)C1 | nM | = | 22.2 |
| O=C(c1ccc(F)c(F)c1Nc1ccc(I)cc1F)N1CC(O)([C@@H]2CCCCN2)C1 + C#Cc1c(F)ccc2cc(O)cc(-c3ncc4c(N5CC6CCC(C5)N6)nc(OCC56CCCN5CC(F)C6)nc4c3F)c12 | nM | = | 5.09 |
